target-under-test: Human recombinant PTP1B (Homo sapiens, UniProt P18031)
Construct: made in house
Sequence (P18031 1-435): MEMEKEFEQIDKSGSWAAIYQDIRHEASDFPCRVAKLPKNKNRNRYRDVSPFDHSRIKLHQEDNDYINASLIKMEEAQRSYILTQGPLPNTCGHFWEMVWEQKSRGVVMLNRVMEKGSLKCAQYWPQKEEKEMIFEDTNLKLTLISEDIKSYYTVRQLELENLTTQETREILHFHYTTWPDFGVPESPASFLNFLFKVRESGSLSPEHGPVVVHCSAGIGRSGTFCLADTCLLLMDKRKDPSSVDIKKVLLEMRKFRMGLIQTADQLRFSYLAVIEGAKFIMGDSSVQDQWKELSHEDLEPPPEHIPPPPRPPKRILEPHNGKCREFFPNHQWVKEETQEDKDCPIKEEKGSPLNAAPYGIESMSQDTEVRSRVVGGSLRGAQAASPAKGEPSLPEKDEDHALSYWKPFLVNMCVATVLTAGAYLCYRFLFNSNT
Format: biochemical
conditions: compound at 2.5 uM
Entries and their percent of phosphatase control (change) at single concentration values follow.

Which percent of phosphatase control (change) at single concentration is reported with Human recombinant PTP1B (Homo sapiens, UniProt P18031) for this entry: Cc1oc(-c2ccc(C(F)(F)F)cc2)nc1-c1ccc(-c2ccc(O)cc2)cc1 [Example 3] ?
−56 (2.5 uM) %

Form field - read-out: percent of phosphatase control (change) at single concentration; system: Human recombinant PTP1B (Homo sapiens, UniProt P18031); submitted item: COc1ccc(-c2cccc(-c3nc(-c4ccc(C(F)(F)F)cc4)oc3C)c2)cc1 [Example 2]
−47 (2.5 uM) %

// fetch Human recombinant PTP1B (Homo sapiens, UniProt P18031) percent of phosphatase control (change) at single concentration for Cc1oc(-c2ccc(C(F)(F)F)cc2)nc1-c1ccc(-c2cccc(Cn3oc(=O)[nH]c3=O)c2)cc1 [Example 14]
−65 (2.5 uM) %

Lookup: percent of phosphatase control (change) at single concentration / Human recombinant PTP1B (Homo sapiens, UniProt P18031) / COC(=O)C(Cc1ccccc1)Oc1c(Br)cc(-c2ccc(-c3nc(-c4ccc(C(F)(F)F)cc4)oc3C)cc2)cc1Br (stereo not shown) [Example 11]
−40 (2.5 uM) %
